Data credit: patent US20140243273A1

TARGET ENTITY: JAK2 (Homo sapiens, UniProt O60674)
Sequence (O60674 whole entry, species assumed): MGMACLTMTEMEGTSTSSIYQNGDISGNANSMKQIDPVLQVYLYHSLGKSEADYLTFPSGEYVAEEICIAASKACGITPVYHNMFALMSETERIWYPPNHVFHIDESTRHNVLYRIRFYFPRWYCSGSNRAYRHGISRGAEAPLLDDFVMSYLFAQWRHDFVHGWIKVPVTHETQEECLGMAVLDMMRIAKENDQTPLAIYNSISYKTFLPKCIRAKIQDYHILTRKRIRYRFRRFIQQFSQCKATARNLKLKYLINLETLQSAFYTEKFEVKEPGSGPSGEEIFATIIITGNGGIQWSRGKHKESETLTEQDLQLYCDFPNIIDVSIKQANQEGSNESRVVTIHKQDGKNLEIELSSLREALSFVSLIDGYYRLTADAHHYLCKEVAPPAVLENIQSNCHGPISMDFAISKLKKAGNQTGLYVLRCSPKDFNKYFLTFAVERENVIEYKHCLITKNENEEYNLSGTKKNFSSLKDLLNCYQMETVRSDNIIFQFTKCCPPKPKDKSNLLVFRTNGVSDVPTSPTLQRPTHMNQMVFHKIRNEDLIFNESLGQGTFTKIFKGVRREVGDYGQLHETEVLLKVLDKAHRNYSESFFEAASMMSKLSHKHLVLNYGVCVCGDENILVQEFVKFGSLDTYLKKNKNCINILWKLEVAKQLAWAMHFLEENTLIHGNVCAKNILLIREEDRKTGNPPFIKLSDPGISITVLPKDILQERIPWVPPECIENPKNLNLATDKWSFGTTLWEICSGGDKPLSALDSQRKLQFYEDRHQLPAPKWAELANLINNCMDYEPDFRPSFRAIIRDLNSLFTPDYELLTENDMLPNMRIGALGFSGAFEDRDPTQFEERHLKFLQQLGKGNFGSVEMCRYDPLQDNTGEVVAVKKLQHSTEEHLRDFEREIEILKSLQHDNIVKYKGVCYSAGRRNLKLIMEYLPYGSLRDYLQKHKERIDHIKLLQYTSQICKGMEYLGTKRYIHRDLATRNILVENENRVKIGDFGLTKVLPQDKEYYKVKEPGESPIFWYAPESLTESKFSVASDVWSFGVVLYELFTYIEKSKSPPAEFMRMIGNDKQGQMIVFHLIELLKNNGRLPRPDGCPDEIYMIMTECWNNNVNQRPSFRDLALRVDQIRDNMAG
PROCEDURE SUMMARY: JAK2 Inhibition Assay
Type: biochemical
CONDITION DETAILS: 5 nM JAK-2 enzyme, 15 μM poly(Glu)4Tyr, 12 μM ATP; kind of constant not given
Response key: TRUE means JAK2 (μM), inhibition data >= 0.01 µM; FALSE means JAK2 (μM), inhibition data < 0.01 µM.

Sample answers from the record:
CC(C)(Nc1ncnc(-c2c[nH]c3ncccc23)n1)C(=O)NCC(F)(F)F
TRUE
CC(C)(Nc1ccnc(-c2c[nH]c3ncc(Cl)cc23)n1)C(=O)NCC(F)(F)F
FALSE
CC(C)[C@@](C)(Nc1nc(-c2c[nH]c3ncc(Cl)cc23)ncc1F)C(=O)NCC(F)(F)F
TRUE
CCN(C)C(=O)[C@](C)(CC)Nc1ccnc(-c2c[nH]c3ncccc23)n1
TRUE
CC(C)(Nc1ncnc(-c2c[nH]c3ncc(Cl)cc23)n1)C(=O)NCC(F)(F)F
FALSE
CC[C@@](C)(Nc1ccnc(-c2c[nH]c3ncccc23)n1)C(=O)NCC(F)(F)F
TRUE

Lab note: next compound to report on.
Q) Does the reported JAK2 (μM), inhibition data for CC[C@@](C)(Nc1nc(-c2c[nH]c3ncc(Cl)cc23)ncc1F)C(=O)NCC(F)(F)F fall at or above the 0.01 µM mark?
A) TRUE
